Reference for the values: ChEMBL document CHEMBL1149191

Kindly supply the reported inhibition at 0.2 µg/mL values for the records listed here.
test system: Mycobacterium tuberculosis; assay: In vitro inhibition of Mycobacterium tuberculosis H37Rv, determined at 0.2 ug/mL; format: functional
Numbers only, in %.

Worked examples, 5 molecules total:
- molecule: "Cn1c2ccccc2c2nnc(N)c(-c3ccccc3F)c21"
  inhibition at 0.2 µg/mL, %: 0
- molecule: "Cc1ccc2c(c1)c1nnc(N)c(-c3ccc(C(C)C)cc3)c1n2C"
  inhibition at 0.2 µg/mL, %: 0
- molecule: "Nc1nnc2c3ccccc3n(Cc3ccccc3)c2c1-c1ccccc1"
  inhibition at 0.2 µg/mL, %: 0
- molecule: "Nc1nnc2c([nH]c3ccccc32)c1-c1ccccc1"
  inhibition at 0.2 µg/mL, %: 2.3
- molecule: "Cn1c2ccc(Br)cc2c2nnc(N)c(-c3ccccc3)c21"
  inhibition at 0.2 µg/mL, %: 0

Field: inhibition at 0.2 µg/mL. Fill in for each record below.
1. Nc1[nH]nc2c3ccccc3nc-2c1-c1ccc(F)cc1
2. CCn1c2ccccc2c2nnc(N)c(-c3ccc(C)cc3)c21
3. Nc1[nH]nc2c3ccccc3nc-2c1-c1cccc(Br)c1

Reply |
0
0
0

Please go through the list and note inhibition at 0.2 µg/mL for each molecule.
1. CCn1c2ccccc2c2nnc(N)c(-c3ccccc3)c21
2. CO[C@H]1/C=C/O[C@@]2(C)Oc3c(C)c(O)c4c(O)c(c(/C=N/N5CCN(C)CC5)c(O)c4c3C2=O)NC(=O)/C(C)=C\C=C\[C@H](C)[C@H](O)[C@@H](C)[C@@H](O)[C@@H](C)[C@H](OC(C)=O)[C@@H]1C [RIFAMPIN]
3. Nc1[nH]nc2c3ccccc3nc-2c1-c1ccccc1F

Reply |
1: 0; 2: 54.8; 3: 0

Parameter requested: inhibition at 0.2 µg/mL. Apply to each item below.
1. Nc1[nH]nc2c3cc(Br)ccc3nc-2c1-c1ccccc1
2. CC(C)c1ccc(-c2c(N)nnc3c4ccccc4n(C)c23)cc1
3. NNC(=O)c1ccncc1 [ISONIAZID]

Reply |
9.2
21.3
49.7

====

Provide the recorded inhibition at 2 µg/mL for the entries that follow.
test system: Mycobacterium tuberculosis; experiment: In vitro inhibition of Mycobacterium tuberculosis H37Rv, determined at 2 ug/mL; type: functional
Answers are plain numbers, in %.

Provide the reported inhibition at 2 µg/mL of each entry below, same order.
1. CCn1c2ccccc2c2nnc(N)c(-c3ccccc3Cl)c21
2. CC(C)c1ccc(-c2c(N)nnc3c4ccccc4n(C)c23)cc1
3. Cc1ccc2c(c1)c1nnc(N)c(-c3ccc(C(C)C)cc3)c1n2C
4. Cn1c2ccccc2c2nnc(N)c(-c3ccccc3F)c21

Reply |
0
63.6
0
0

Please state inhibition at 2 µg/mL for every molecule in the list that follows.
1. Nc1nnc2c3ccccc3n(Cc3ccccc3)c2c1-c1ccccc1
2. Nc1[nH]nc2c3ccccc3nc-2c1-c1ccc(F)cc1
3. Nc1nnc2c([nH]c3ccccc32)c1-c1ccccc1
4. CC(C)c1ccc(-c2c3nc4ccccc4c-3n[nH]c2N)cc1

Reply |
0
0
25.5
32.9

====

Please go through the items and note down their inhibition at 2 µg/mL.
system: Mycobacterium tuberculosis; assay: In vitro inhibition of Mycobacterium tuberculosis H37Rv, determined at 2 ug/mL; format: functional
Reply with a number, then the unit it belongs to.

Some molecules with recorded inhibition at 2 µg/mL:
- test-smiles: "CC(C)c1ccc(-c2c3nc4ccc(Br)cc4c-3n[nH]c2N)cc1"
  inhibition at 2 µg/mL: "56.3%"
- test-smiles: "Nc1nnc2c3ccccc3n(Cc3ccccc3)c2c1-c1ccccc1Cl"
  inhibition at 2 µg/mL: "0%"

For every listed record, write down its inhibition at 2 µg/mL.
1. Cn1c2ccccc2c2nnc(N)c(-c3ccccc3Cl)c21
2. Cc1ccc(-c2c(N)nnc3c4ccccc4n(C)c23)cc1
3. Cn1c2ccccc2c2nnc(N)c(-c3ccccc3)c21
4. CN(C)c1ccc(-c2c3nc4ccccc4c-3n[nH]c2N)cc1
5. Nc1[nH]nc2c3cc(Br)ccc3nc-2c1-c1ccccc1

Reply |
1. 0%
2. 0%
3. 25.5%
4. 10%
5. 44.3%

Count: 4. Required value per item: inhibition at 2 µg/mL.
1. CCn1c2ccccc2c2nnc(N)c(-c3ccccc3)c21
2. CCn1c2ccccc2c2nnc(N)c(-c3ccc(C(C)C)cc3)c21
3. CC(C)c1ccc(-c2c(N)nnc3c4cc(Br)ccc4n(C)c23)cc1
4. Nc1[nH]nc2c3ccccc3nc-2c1-c1cccc(Br)c1

Reply |
0%
10.5%
0%
0%
